melting point listing for selected compounds.

Past entries and their recorded results:
| chemicalString | melting point |
| --- | --- |
| COc1ccc(Br)c(-c2nnc(N)o2)c1 | 189 to 191 °C |
| CCOC(=O)c1cc(C)nc(-c2ccccc2)n1 | 94 to 96 °C |

Input line: Given the compound NC(=O)c1c(N)sc2c1CCN(Cc1ccccc1)C2 , what is its reported melting point?
Output line: 76 to 78 °C

Input line: May I ask what melting point has been recorded for Nn1c(S)nnc1-c1ccc(Br)cc1 ?
Output line: 202 to 204 °C

Input line: Entry under review: Cc1nc(-c2cccc(Cl)c2)sc1C(=O)O . Reported melting point?
Output line: 191 to 193 °C

Input line: Fill blank: measured melting point of the compound O=C(O)c1c2c(nc3ccc(Br)cc13)CCCC2 is ____.
Output line: 291 to 293 °C

---

measuredMetric: melting point

| compound | measuredMetric | reading |
| --- | --- | --- |
| COC(=O)C(=O)CC(=O)c1ccc(F)cc1 | melting point | 125 to 135 °C |

Input line: Looking for the measured melting point of Cc1cccc(-c2nnc(CCl)o2)c1 , can you help?
Output line: 57 to 59 °C

Input line: So what does the record say about melting point for NC(=S)c1ccc(Cl)c(Cl)c1 ?
Output line: 136 to 138 °C

Input line: I have this compound here, O=C(O)CC(O)(c1ccccc1)C(F)(F)F (centres undefined) , and I need its recorded melting point.
Output line: 133 to 135 °C

---

measuredMetric: melting point

| compound | melting point |
| --- | --- |
| Nc1ccc(S(N)(=O)=O)cc1Cl | 156 to 158 °C |
| Cc1cccc(C(=O)NC(C)C(=O)O)c1 (centres undefined) | 117 to 119 °C |
| CCOC(=O)c1sc2cccc(F)c2c1CBr | 133 to 135 °C |
| CNc1ncccc1C#N | 87 to 89 °C |
| COc1cc(C(=O)O)ccc1OCc1ccc(Cl)cc1 | 221 to 223 °C |
| NC(=O)c1cn[nH]c1 | 223 to 225 °C |
| O=C1CCc2c(Cl)cc(Br)cc21 | 124 to 126 °C |
| NC(=O)c1ccc(NCCO)c([N+](=O)[O-])c1 | 218 to 220 °C |

Input line: Can you look up the measured melting point of CNC(C(N)=O)c1cccc(F)c1 (centres undefined) for me?
Output line: 153 to 155 °C

Input line: Would you mind telling me what melting point value was observed for Cc1ccc(S(=O)(=O)Nc2ccc(O)cc2)s1 ?
Output line: 106 to 108 °C

Input line: Could you share which melting point value was measured for COc1ccc(/C=C/C(=O)O)c(OC)c1 ?
Output line: 192 to 194 °C

Input line: Fill blank: measured melting point of the compound CC(=O)c1cccc([N+](=O)[O-])c1C is ____.
Output line: 49 to 51 °C

Input line: I have this compound here, CCOC(=O)Cc1ccc(C(C)=O)cc1 , and I need its recorded melting point.
Output line: 55 to 57 °C

Input line: If you can, please state the reported melting point value of N#CCCNc1cccc(Cl)c1 .
Output line: 141 to 143 °C

---

measuredMetric: melting point

Below, 5 compounds whose answers are already recorded.
| compound | melting point |
| --- | --- |
| Cc1ccc(-c2nc(C(=O)O)cs2)c(C)c1 | 129 to 131 °C |
| O=C(O)c1cc(OCc2ccccc2)ccn1 | 159 to 161 °C |
| O=c1c(Cl)c(Cl)cnn1-c1ccc(Cl)cc1 | 186 to 188 °C |
| O=C(O)C1CCCCC1C(=O)NC1CCS(=O)(=O)C1 (stereo unspecified) | 137 to 139 °C |
| COc1ccc(C(=O)N2CCCC(C(=O)O)C2)c2ccccc12 (stereo unspecified) | 255 to 257 °C |

Kindly review the next compound as well.
Input line: Would you kindly share the measured melting point for Cc1ccc(CCC(=O)O)cc1Cl ?
Output line: 84 to 86 °C

Source of measurements: a melting point compilation (Tetko et al.)
